# Tested on: ragweed (common ragweed, Ambrosia artemisiifolia)
# TEST: Test A1 preemergence, ragweed
# Assay type: in vivo
# REPORTED_CONDITIONS: 31 g ai/ha, 0 to 100 scale (0 no effect, 100 complete control)
OBSERVATION_TYPE: Plant response rating, Ragweed
# print the numeric value only

CCOC(=O)N(c1cc(C(=O)N2CCC(c3ccccc3)CC2)c(C)cc1C)S(=O)(=O)C(F)(F)F [Compound 365]: 0
CCOC(=O)N(c1cc(C(=O)N2CCOCC2)c(C)cc1C)S(=O)(=O)C(F)(F)F [Compound 363]: 20
COc1cc(C)c(C2=NOC3(CCCC3)C2)cc1NS(=O)(=O)C(F)(F)F [Compound 304]: 0
CCC1ON=C(c2cc(NS(=O)(=O)C(F)(F)F)c(C)cc2C)C1CC (stereo not shown) [Compound 343]: 10
Cc1c(C(=O)N2CCCCC2)cc(NS(=O)(=O)C(F)(F)F)c(Cl)c1F [Compound 333]: 0
CCC1ON=C(c2cc(N(COC(=O)C(C)(C)C)S(=O)(=O)C(F)(F)F)c(C)cc2C)C1CC (stereo not shown) [Compound 344]: 0
Cc1c(NS(=O)(=O)C(F)(F)F)cc(C(=O)N2CCC(C)CC2)c(C)c1C [Compound 366]: 30
CCCCOC1CC(c2cc(NS(=O)(=O)C(F)(F)F)c(C)cc2C)=NO1 (stereo not shown) [Compound 323]: 0
Cc1c(C2=NOC3(CCCC3)C2)cc(N(COC(=O)C(C)(C)C)S(=O)(=O)C(F)(F)F)c(C)c1C [Compound 382]: 0
Cc1c(C(=O)N2CCSCC2)cc(N(COC(=O)C(C)(C)C)S(=O)(=O)C(F)(F)F)c(C)c1C [Compound 285]: 0

Plant response rating, Ragweed reported for this compound Cc1cc(C)c(N(COC(=O)C(C)(C)C)S(=O)(=O)C(F)(F)F)cc1C(=O)N1CCC(C)CC1 [Compound 353] : 20

So for COCC1CC(c2cc(N(COC(=O)C(C)(C)C)S(=O)(=O)C(F)(F)F)c(C)cc2C)=NO1 (stereo not shown) [Compound 338] , the logged Plant response rating, Ragweed turned out to be 0

// field: Plant response rating, Ragweed; key: Cc1c(NS(=O)(=O)C(F)(F)F)cc(C(=O)N2CCC(F)CC2)c(C)c1C [Compound 358] ; value = 40

Documented Plant response rating, Ragweed of Cc1cc(C)c(N(COC(=O)C(C)(C)C)S(=O)(=O)C(F)(F)F)cc1C(=O)N1CCC(c2ccccc2)CC1 [Compound 364] : 0

Entry CCOC(=O)N(c1cc(C(=O)N2C[C@@H](C)O[C@@H](C)C2)c(C)c(C)c1C)S(=O)(=O)C(F)(F)F [Compound 332] , Plant response rating, Ragweed reported as 50

The measured Plant response rating, Ragweed associated with Cc1cc(C)c(C2=NOC(C(C)C)C2)cc1NS(=O)(=O)C(F)(F)F (stereo not shown) [Compound 381] reads 0

// Plant response rating, Ragweed lookup, compound = Cc1cc(F)c(C2=NOC3CCCC23)cc1NS(=O)(=O)C(F)(F)F (stereo not shown) [Compound 310] , result: 0

----------
# Tested on: kochia (Bassia scoparia)
# TEST: Test A1 postemergence, kochia
# Assay type: in vivo
# REPORTED_CONDITIONS: Postemergence, 125 g ai/ha; 0 to 100 scale
# From the text: […]
OBSERVATION_TYPE: Plant response rating, Kochia
Write the value as a bare number.

Completed entries (count: 2):
CCC1ON=C(c2cc(N(COC(=O)C(C)(C)C)S(=O)(=O)C(F)(F)F)c(C)cc2C)C1CC (stereo not drawn) [Compound 347]: 60
Cc1c(NS(=O)(=O)C(F)(F)F)cc(C(=O)N2CC(C)OC(C)C2)c(C)c1C (stereo not drawn) [Compound 328]: 60

Shift focus to the following entry.
Lab note: compound CCC1ON=C(c2cc(NS(=O)(=O)C(F)(F)F)c(C)cc2C)C1CC (stereo not drawn) [Compound 346] tested on kochia (Bassia scoparia); recorded Plant response rating, Kochia was 60
